# System: KB
# Assay remarks: Cytotoxicity against human KB cells assessed as cell growth inhibition after 72 hrs by MTT assay
# Format: functional, cell-based
# true (1) = IC50 below 10 µM (exclusive); false (0) = IC50 at/above 10 µM

Would you please look over these solved cases?
| Line notation | Label |
| --- | --- |
| COc1ccc(C2=C(c3cc(OC)c(OC)c(OC)c3)C(=O)N(C)C2=O)cc1O | true (1) |
| COc1ccc(C2=C(c3cc(OC)c(OC)c(OC)c3)C(=O)N(O)C2=O)cc1 | true (1) |
| COc1cc(C2=C(c3ccc4ccccc4c3)C(=O)N(C)C2=O)cc(OC)c1OC | false (0) |

Would you kindly verify if IC50 of COc1ccc(C2=C(c3cc(OC)c(OC)c(OC)c3)C(=O)N(O)C2=O)cc1O is strictly less than 10 µM?
true (1)
